- testedOn: T1, human Jagged1 (human, UniProt P78504 34-1218)
- T1 construct: whole, on cells
- testDetails: FMAT, hybridoma supernatant, 293T cells with human Jagged1
experimentalReadout: Count
No unit in the answer, please; the number alone is enough.

// below: answered binders
Read off the recorded Count for 1E4 (antibody, IgG2, V domains shown, Fully human; also used where no isotype is printed) VH: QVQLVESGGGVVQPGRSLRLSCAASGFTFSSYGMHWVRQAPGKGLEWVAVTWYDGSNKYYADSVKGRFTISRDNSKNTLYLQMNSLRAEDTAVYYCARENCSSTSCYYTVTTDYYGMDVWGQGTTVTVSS VL: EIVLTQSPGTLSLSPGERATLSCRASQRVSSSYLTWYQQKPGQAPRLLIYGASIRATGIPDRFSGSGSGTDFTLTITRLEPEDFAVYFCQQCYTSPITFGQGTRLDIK
2

Read off the recorded Count for 12A1 (antibody, IgG4, V domains shown, Fully human; also used where no isotype is printed) VH: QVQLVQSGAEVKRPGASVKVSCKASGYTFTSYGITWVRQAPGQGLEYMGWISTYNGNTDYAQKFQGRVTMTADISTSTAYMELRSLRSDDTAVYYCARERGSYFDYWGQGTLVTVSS VL: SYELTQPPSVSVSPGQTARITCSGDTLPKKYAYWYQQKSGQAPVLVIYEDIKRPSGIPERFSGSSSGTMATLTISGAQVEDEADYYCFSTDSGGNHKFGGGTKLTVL
25

More entries:
Read off the recorded Count for 3A7 (antibody, IgG4, V domains shown, Fully human; also used where no isotype is printed) VH: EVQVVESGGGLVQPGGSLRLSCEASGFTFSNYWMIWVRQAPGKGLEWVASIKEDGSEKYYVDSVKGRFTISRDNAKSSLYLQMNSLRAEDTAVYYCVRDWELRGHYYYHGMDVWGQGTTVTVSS VL: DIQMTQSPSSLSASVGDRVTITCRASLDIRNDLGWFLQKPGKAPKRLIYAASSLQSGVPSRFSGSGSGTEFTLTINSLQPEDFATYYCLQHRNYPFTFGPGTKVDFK
1
